test system: CCRIS mutagenicity, Ames/micronucleus/aberration tests; assay: CCRIS mutagenicity studies; details: Test System: AMES SALMONELLA TYPHIMURIUM; Strain/Indicator: TA1535; Metabolic Activation: HAMSTER, LIVER, S-9, AROCLOR 1254 (10%); Method: PREINCUBATION
The source made the active and inactive calls. No rule for the calls is given here.
Your answer must be one of the following: true = active, false = inactive

Check out these entries, answers already filled in.
- Molecule: "CC(=O)CC(C)C"
  Tested System: "CCRIS mutagenicity, Ames/micronucleus/aberration tests"
  Assigned Label: "false"
- Molecule: "CCc1cc(C(N)=S)ccn1"
  Tested System: "CCRIS mutagenicity, Ames/micronucleus/aberration tests"
  Assigned Label: "false"

Q. Lab log entry: CCOP(=O)(NC(C)C)Oc1ccc(SC)c(C)c1 (stereo unspecified) — outcome as called in the assay?
A. false

Q. What do you have for "CC(C)(c1cc(Br)c(O)c(Br)c1)c1cc(Br)c(O)c(Br)c1" ?
A. false

Q. Likewise for "NS(=O)(=O)c1cc(C(=O)O)c(NCc2ccco2)cc1Cl" ?
A. false

Q. Next up: "c1cnc2c(c1)ccc1cccnc12"
A. false

Q. Would you mind doing "CCCCCN" as well?
A. false

Q. // next record "COC(=O)c1ccc(C(=O)OC)cc1"
A. false

Q. Field entry: C=CC(=O)OCC(Br)CBr (stereo unspecified)
A. true

Q. What would you report for "Oc1c(Br)cc(Br)cc1Br" ?
A. false

Q. Next: "OC/C(Br)=C(\Br)CO"
A. true

Q. Again, but for CCCCC(CC)COCC1CO1 (stereo unspecified)
A. false

Q. Thanks! And CCCCCCCCCCCCCCCCC1CO1 (stereo unspecified) ?
A. false

Q. Now consider "C=CC(=O)OC" .
A. false

Q. # repeat for "Cc1ccc(S(=O)(=O)O)cc1C"
A. false

Q. Then what about the molecule "CCCCOCCOCCSC#N" ?
A. false

The reported numbers originate from PubChem BioAssay AID1259407.
